Would you kindly list cytotoxicity at 10 µM for each of these compounds?
experiment: Toxicity liver stage against HepG2, at 10uM; assay type: cell-based; parameters: test concentration 10 uM, cell line HepG2-A16-CD81EGFP; details: human, HepG2-A16-CD81EGFP cells; read-out: INHIBITION

**Query** Requested read-out: cytotoxicity at 10 µM. Entry: Cc1ccc(CN2CCOCC2c2[nH]ncc2C)cn1 (stereo unspecified)
**Result** 4.52%

**Query** Looking for the measured cytotoxicity at 10 µM of O=C(C1CCCO1)N1CCC(n2cc(-c3ccc(F)cc3)nn2)CC1 (stereo unspecified) , can you help?
**Result** -1.41%

**Query** # get_value(readout='cytotoxicity at 10 µM', item= "CCN1C(=O)CC[C@@H]2[C@H]1CCN2S(=O)(=O)c1cccs1" )
**Result** 0.169%

**Query** Given the compound "CNc1oc(-c2ccc(OC)c(S(=O)(=O)N3CCCC3)c2)nc1C#N" , what is its reported cytotoxicity at 10 µM?
**Result** 3.33%

**Query** Fill blank: measured cytotoxicity at 10 µM of the compound O=C(NCCC(O)c1cccs1)c1ccc(Br)o1 (stereo unspecified) is ____.
**Result** -15.2%

**Query** Give its cytotoxicity at 10 µM value. Item: "Cc1nc2ccccc2c(=O)n1CCC(=O)N1CCSCC1"
**Result** -6.13%

**Query** Recorded cytotoxicity at 10 µM of "Cc1nnnn1CCC(=O)N1CCC2(CCC(=O)N(CC3CC3)C2)CC1" , please.
**Result** 4.17%

**Query** What value of cytotoxicity at 10 µM has been recorded for this entry: CC(C)CCN1C2(CCN(c3ncccn3)C2)c2ccccc2S1(=O)=O (stereo unspecified)
**Result** 1.35%

**Query** GET /values?readout=cytotoxicity at 10 µM&item= Cc1nc(C)n(CC2CCCN(c3ccc(C#N)cn3)C2)n1 (stereo unspecified)
**Result** -9.67%

**Query** Dear colleague, I am looking for the recorded cytotoxicity at 10 µM of the following compound: COCC1CCN(C(C(=O)O)c2c(F)cccc2OC(C)C)CC1 (stereo unspecified)
**Result** 0.515%

**Query** Need cytotoxicity at 10 µM of "COCCN(Cc1ccc(F)cc1Cl)C(=O)c1ccncc1" , thanks.
**Result** -5.69%
